# experimental_details: Cytotoxicity against human THP1 cells upto 50 uM treated 3 times per week for 14 days by MTT assay
# Type: cell-based
# recorded_conditions: thp-1, 336 h
readout_label: Activity

input: Bench note: what Activity did Cc1ncc([N+](=O)[O-])n1CCn1cc(CNc2cc(Cl)c(Cl)cc2Cl)nn1 show?
output: Non-toxic

input: Consider the compound shown here: Cc1ccc(OCc2cn(CCn3c([N+](=O)[O-])cnc3C)nn2)cc1 What is its recorded Activity?
output: Non-toxic

input: # input compound: Cc1ccccc1OCc1cn(CCn2c([N+](=O)[O-])cnc2C)nn1 ; wanted: its Activity
output: Non-toxic

input: If you can, please state the reported Activity value of Cc1ncc([N+](=O)[O-])n1CCn1cc(COc2ccc(Cl)cc2Cl)nn1 .
output: Non-toxic

input: Entry Cc1ncc([N+](=O)[O-])n1CCn1cc(CNc2cccc(Cl)c2Cl)nn1 : reported Activity = ?
output: Non-toxic

input: I'd like to know its Activity. The compound in question is Cc1ncc([N+](=O)[O-])n1CCn1cc(CNc2ccc(F)cc2)nn1
output: Non-toxic

input: Which Activity reading was recorded for the compound Cc1ncc([N+](=O)[O-])n1CCn1cc(-c2ccccc2)nn1 ?
output: Non-toxic

input: What Activity value was documented for this compound, Cc1ncc([N+](=O)[O-])n1CCn1cc([Si](C)(C)C)nn1 ?
output: Non-toxic

Continuing:
input: Fill in the blank: the reported Activity of Cc1ncc([N+](=O)[O-])n1CCn1cc(CNc2ccccn2)nn1 is ____.
output: Non-toxic

input: Fill in: Activity of Cc1ncc([N+](=O)[O-])n1CCn1cc(COc2c(C(C)(C)C)cc(C(C)(C)C)cc2C(C)(C)C)nn1 is ___
output: Non-toxic

input: Entry Cc1ncc([N+](=O)[O-])n1CCn1cc(C2(O)CCCCC2)nn1 has what Activity?
output: Non-toxic
